- Assay procedure: In vitro inhibition of inducible vascular cell adhesion molecule-1 (VCAM-1) expression in Human aortic endothelial cells (HAEC)
- Assay type: functional, cell-based
Documented IC50 across a set of compounds
Measurement kind: IC50 (µM)

[[record]]
compound = "C=CS(=O)(=O)c1ccccc1 [(ETHENYLSULFONYL)BENZENE]"
recorded_value = 2

[[record]]
compound = "O=S1(=O)C=Cc2ccccc21"
recorded_value = 4

[[record]]
compound = "CC(=O)OCCS(=O)(=O)c1ccccc1"
recorded_value = 12

[[record]]
compound = "CC(=O)Nc1cccc(S(=O)(=O)CCOC(C)=O)c1"
recorded_value = 4

[[record]]
compound = "C=CC(=O)OCCS(=O)(=O)c1ccccc1"
recorded_value = 7

[[record]]
compound = "CCCCCCC/C=C/C(=O)Nc1cccc(S(=O)(=O)CCO)c1"
recorded_value = 23

[[record]]
compound = "C=CS(C)(=O)=O"
recorded_value = 14

[[record]]
compound = "CCCCC/C=C/C(=O)OCCS(=O)(=O)c1ccccc1"
recorded_value = 17

[[record]]
compound = "CCCCCCC/C=C/C(=O)OCCS(=O)(=O)c1cccc(N)c1"
recorded_value = 28

[[record]]
compound = "O=S(=O)(CCCl)c1ccccc1"
recorded_value = 2

[[record]]
compound = "C=CS(=O)(=O)c1cccc(NCCCCCCCC)c1"
recorded_value = 29

[[record]]
compound = "CC(=O)OCCS(=O)(=O)c1cccc(N)c1"
recorded_value = 10

[[record]]
compound = "CCCCCC#CC(=O)Nc1cccc(S(=O)(=O)CCO)c1"
recorded_value = 20

[[record]]
compound = "CCCCCC#CC(=O)OCCS(=O)(=O)c1cccc(N)c1"
recorded_value = 6

[[record]]
compound = "CCCCC/C=C/C(=O)OCCS(=O)(=O)c1cccc(N)c1"
recorded_value = 17

